TESTED TARGET: Concanavalin-A (Canavalia ensiformis) (UniProt P02866)
Sequence (P02866 whole entry, looked up): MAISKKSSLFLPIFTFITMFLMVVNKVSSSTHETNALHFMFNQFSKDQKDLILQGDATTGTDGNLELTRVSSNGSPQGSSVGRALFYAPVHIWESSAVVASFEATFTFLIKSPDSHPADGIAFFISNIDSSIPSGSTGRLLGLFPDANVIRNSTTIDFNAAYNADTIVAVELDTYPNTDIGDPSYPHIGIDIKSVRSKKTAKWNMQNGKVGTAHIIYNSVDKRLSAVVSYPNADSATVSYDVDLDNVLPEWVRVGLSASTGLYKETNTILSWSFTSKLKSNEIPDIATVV
PROTOCOL DETAILS: ConA small-molecule binders, primary screen, artefact control for SMM control protein annotation, biochemical, small-molecule microarray, Alexa647 label, 635 nm (AID 1127)
APPLIED CONDITIONS: ConA-A647 binding fluorescence, higher = more signal
composite z-score of 1 or higher: met. Under 1: not met.

Exam item: Threshold query (composite z-score >= 1) on C=C(CCCC)C(=O)CC[C@@H](OC(=O)c1ccccc1-c1ccccc1C(=O)O)c1ccc(OCCO)cc1
Marked response: not met

Exam item: Threshold query (composite z-score >= 1) on CC(=O)NCCCC[C@@H]1NC(=O)[C@H]2C[C@@H](C(=O)NCCCCCCNC(=O)CS)[C@@H](c3ccc(O)cc3)N2C1=O
Marked response: not met

Exam item: Threshold query (composite z-score >= 1) on CCCC#C[Si](O[C@H](CC)c1cn(Cc2cccc(Cl)c2)nn1)(C(C)C)C(C)C
Marked response: not met

Exam item: Threshold query (composite z-score >= 1) on CC(C)N1C(=O)[C@@]2(Cc3ccccc31)c1ccccc1C(=O)N(Cc1ccccc1Cl)[C@H]2c1ccc(CO)cc1
Marked response: not met

Exam item: Threshold query (composite z-score >= 1) on O=C(N1CCCCC1)[C@]1(Cc2ccccc2)N=C(c2ccc(OCCCO)cc2)O[C@@H]1c1ccccc1
Marked response: met

Exam item: Threshold query (composite z-score >= 1) on C=CC[C@]1(C(=O)NCc2ccccc2)N=C(c2ccc(OCCCO)cc2)O[C@H]1c1ccccc1N=[N+]=[N-]
Marked response: met

Exam item: Threshold query (composite z-score >= 1) on NC(=O)NCC#Cc1ccc2c(c1)[C@]1(C(=O)N2)[C@H](C(=O)Nc2nc3ccccc3s2)[C@H]2C(=O)O[C@H](c3ccccc3)[C@H](c3ccccc3)N2[C@@H]1c1ccccc1OCCO
Marked response: met

Exam item: Threshold query (composite z-score >= 1) on CNS(=O)(=O)c1ccc(C)cc1
Marked response: not met

Exam item: Threshold query (composite z-score >= 1) on C=CCN1C(=O)[C@]2(O[C@H](CCn3cc([C@H](O)c4ccccc4)nn3)[C@@H]([Si](C)(C)c3ccc(OC)cc3)[C@@H]2C)c2cc(N3CCC3=O)ccc21
Marked response: not met

Exam item: Threshold query (composite z-score >= 1) on C=C(COC)C(=O)CC[C@@H](OC(C)=O)c1ccc(CO)o1
Marked response: not met

Exam item: Threshold query (composite z-score >= 1) on COC(=O)[C@@]1(Cc2ccc(OC)cc2)[C@H]2c3cc(C(=O)N(C)C)n(Cc4ccc(S(C)(=O)=O)cc4)c3C[C@H]2CN1C(=O)c1ccccc1
Marked response: not met

Exam item: Threshold query (composite z-score >= 1) on C=CCC(OC(C)=O)[C@@H]1[C@@H](N(Cc2cccc3ccccc23)C(=O)c2ccc(-c3ccccc3)cc2)c2cc(OCCCO)ccc2N1C(=O)c1ccc2ccccc2c1 (stereo partly drawn)
Marked response: not met

Exam item: Threshold query (composite z-score >= 1) on CC(C)C[C@@H]1NC(=O)[C@H](C(C)C)NC(=O)[C@@]23C(=O)N[C@@H](Cc4ccccc4)C2[C@H](C)[C@@]2(C)O[C@H]2C3/C=C/CC/C=C/CNC1=O (stereo partly drawn)
Marked response: not met

Exam item: Threshold query (composite z-score >= 1) on CCOC(=O)C1=CC[C@@H](c2ccccc2)N(S(=O)(=O)c2ccc(C)cc2)[C@H]1c1ccccc1C
Marked response: not met

Exam item: Threshold query (composite z-score >= 1) on COc1ccc(C#Cc2ccc3c(c2)[C@]2(C(=O)N3)[C@H](c3ccccc3OCCO)N3[C@H](c4ccccc4)[C@H](c4ccccc4)OC(=O)[C@H]3[C@@H]2C(=O)Nc2nc3ccccc3s2)cc1
Marked response: not met

Exam item: Threshold query (composite z-score >= 1) on C=CC(=C)[C@H]1Oc2ccccc2S(=O)(=O)N2CCC[C@@H]12
Marked response: not met

Exam item: Threshold query (composite z-score >= 1) on O=C1C2C=CC(C(O)CCc3ccccc3)N(Nc3ccccc3F)C2C(=O)N1c1ccccc1 (stereo not drawn)
Marked response: not met

Exam item: Threshold query (composite z-score >= 1) on CO[C@H]1O[C@H](CO)[C@@H](OC(=O)Nc2ccccc2)[C@H](OC(=O)Nc2ccccc2)[C@@H]1OC(=O)Nc1ccccc1
Marked response: met

Exam item: Threshold query (composite z-score >= 1) on CC(C)c1ccc(NN2C(C(O)c3ccc(B(O)O)cc3)C=CC3C(=O)N(c4ccccc4)C(=O)C32)cc1 (stereo not drawn)
Marked response: met

Exam item: Threshold query (composite z-score >= 1) on CCN(CC)c1ccc(N2CC=CC34O[C@@H]5C=CCCOC(=O)C5[C@H]3C(=O)N(CCCCCCO)[C@@H]4C2=O)cc1 (stereo partly drawn)
Marked response: not met

Exam item: Threshold query (composite z-score >= 1) on COC(=O)[C@@]1(Cc2ccc(OC)cc2)[C@@H]2C(=CC(=O)[C@H]2CC(=O)C(=O)N2CCCC2)CN1C(=O)c1ccccc1
Marked response: not met

Exam item: Threshold query (composite z-score >= 1) on COc1cc2c(cc1OC)CN(C(=O)[C@@H]1[C@H]3C(=O)O[C@H](c4ccccc4)[C@H](c4ccccc4)N3[C@H](c3ccccc3OCCO)[C@@]13C(=O)Nc1ccc(C#CCCO)cc13)CC2
Marked response: met

Exam item: Threshold query (composite z-score >= 1) on CC(C)NC(=O)[C@@H]1c2ccccc2C(=O)N(C2Cc3ccccc3C2)[C@H]1c1ccc(CO)cc1
Marked response: not met

Exam item: Threshold query (composite z-score >= 1) on COCCOC(=O)N1C(=O)[C@@]2(c3ccccc31)[C@H](C(=O)N1CCc3cc(OC)c(OC)cc3C1)[C@H]1C(=O)O[C@H](c3ccccc3)[C@H](c3ccccc3)N1[C@@H]2c1ccc(OCCO)cc1
Marked response: met

Exam item: Threshold query (composite z-score >= 1) on CN(C)CCCC[C@@H]1NC(=O)[C@H]2C[C@@H](C(=O)NCCCCCCN)[C@@H](c3ccc(O)cc3)N2C1=O
Marked response: met

Exam item: Threshold query (composite z-score >= 1) on COC(=O)[C@@]1(CCS(=O)(=O)c2ccccc2)N=C(c2ccc(OCCCO)cc2)O[C@H]1c1ccccc1CN=[N+]=[N-]
Marked response: met

Hello, the source for this data is PubChem BioAssay, in case you need it.
